experiment: Ganaxolone solubility in water
quantity-kind: solubility

1. CC(=O)[C@H]1CC[C@H]2[C@@H]3CC[C@H]4C[C@](C)(O)CC[C@]4(C)[C@H]3CC[C@]12C [Ganaxolone, 3α-hydroxy, 3β-methyl-5α-pregnan-20-one] ... < 1 µg/mL
